target: soluble SV2A (Rattus norvegicus, UniProt Q02563)
Sequence (Q02563 whole entry): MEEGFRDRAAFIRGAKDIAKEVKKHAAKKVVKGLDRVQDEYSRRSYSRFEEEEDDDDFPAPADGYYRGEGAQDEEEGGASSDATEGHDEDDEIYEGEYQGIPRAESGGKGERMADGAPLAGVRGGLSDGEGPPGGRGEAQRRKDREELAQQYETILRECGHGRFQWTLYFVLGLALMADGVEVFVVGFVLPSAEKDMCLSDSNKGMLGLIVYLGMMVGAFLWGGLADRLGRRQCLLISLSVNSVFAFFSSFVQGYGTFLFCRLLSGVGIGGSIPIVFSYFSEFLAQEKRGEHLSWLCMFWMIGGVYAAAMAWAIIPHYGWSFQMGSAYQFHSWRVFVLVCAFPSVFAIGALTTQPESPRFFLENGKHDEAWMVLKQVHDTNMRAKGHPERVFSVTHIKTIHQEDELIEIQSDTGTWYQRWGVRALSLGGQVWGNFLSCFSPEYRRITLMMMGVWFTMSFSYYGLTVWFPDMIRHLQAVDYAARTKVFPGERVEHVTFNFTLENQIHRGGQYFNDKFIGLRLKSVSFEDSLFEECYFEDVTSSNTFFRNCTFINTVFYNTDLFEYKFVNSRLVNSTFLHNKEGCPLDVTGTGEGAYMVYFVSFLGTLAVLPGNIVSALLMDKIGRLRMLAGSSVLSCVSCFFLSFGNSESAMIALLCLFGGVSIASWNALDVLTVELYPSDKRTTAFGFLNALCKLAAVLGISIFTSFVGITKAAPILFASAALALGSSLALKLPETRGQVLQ
OBSERVED PROPERTY: Kd (nM)
Entry rule: numbers only, all in nM.

Reading of Kd for CC[C@@H](C(N)=O)N1CC(c2cccc(N=[N+]=[N-])c2)CC1=O (stereo partly shown) [ucb 30889] with soluble SV2A (Rattus norvegicus, UniProt Q02563): 82

----------
target: Rat cerebellar granule neurons; experiment: [3H]ucb 30889 binding in rat cerebellar granule neurons
OBSERVED PROPERTY: pKd
Quick note: pKd values are minus log10 of concentrations in mol/L.

For CC[C@@H](C(N)=O)N1CC(c2cccc(N=[N+]=[N-])c2)CC1=O (stereo partly shown) the compound record lists pKd as 7.23
